Reference source for all entries: patent US11873291B2

molecular target: recombinant human cGAS (aa147-522) (Homo sapiens, UniProt Q8N884); construct: recombinant human cGAS (aa147-522); His6-SUMO (cleaved yes); made in house; host or cells: E. coli BL21/pLys; test: In vitro inhibition assay of cGAS activity (ATP consumption, KinaseGlo Max); assay type: biochemical; conditions: Table 2, read-out: cGAS Inhibition Results IC50
Sequence (Q8N884 147-522): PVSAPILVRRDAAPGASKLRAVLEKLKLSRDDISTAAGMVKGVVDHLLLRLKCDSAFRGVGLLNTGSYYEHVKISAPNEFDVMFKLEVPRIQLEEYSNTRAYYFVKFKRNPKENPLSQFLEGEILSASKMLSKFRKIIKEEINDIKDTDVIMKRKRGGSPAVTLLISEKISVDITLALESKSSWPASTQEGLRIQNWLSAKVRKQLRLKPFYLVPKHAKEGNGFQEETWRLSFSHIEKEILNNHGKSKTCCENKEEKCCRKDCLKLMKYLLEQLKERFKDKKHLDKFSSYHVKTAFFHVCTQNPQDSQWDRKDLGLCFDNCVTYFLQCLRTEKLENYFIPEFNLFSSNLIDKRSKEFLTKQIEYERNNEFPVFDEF
Metric name: IC50

Cc1cc(-c2cn[nH]c2)c2ccc(Cl)c(Cl)c2n1 [I-406] = 2000 to 30000 nM

Lookup: API: value(readout= IC50, system= recombinant human cGAS (aa147-522) (Homo sapiens, UniProt Q8N884), query= O=[PH](O)OCCCCNc1cc(-c2cn[nH]c2)c2ccc(Cl)c(Cl)c2n1 [I-258] )
Found: < 2000 nM

Lookup: API: value(readout= IC50, system= recombinant human cGAS (aa147-522) (Homo sapiens, UniProt Q8N884), query= O=C(O)c1cc(C(=O)O)cc(-c2cc(-n3ccnc3)c3ccc(Cl)cc3n2)c1 [I-28] )
Found: < 2000 nM

Lookup: API: value(readout= IC50, system= recombinant human cGAS (aa147-522) (Homo sapiens, UniProt Q8N884), query= CN(CCO)c1cc(-c2cn[nH]c2)nc2c(Cl)c(Cl)ccc12 [I-297] )
Found: > 30000 nM

Lookup: API: value(readout= IC50, system= recombinant human cGAS (aa147-522) (Homo sapiens, UniProt Q8N884), query= CC(C)(C)OC(=O)NC[C@@H]1CCCN1c1cc(-n2ccnc2)c2ccc(Cl)c(Cl)c2n1 [I-152] )
Found: 2000 to 30000 nM

Lookup: API: value(readout= IC50, system= recombinant human cGAS (aa147-522) (Homo sapiens, UniProt Q8N884), query= CCOc1ccc(-c2cc(-n3ccnc3)c3ccc(Cl)cc3n2)cc1C(=O)O [I-19] )
Found: < 2000 nM

Lookup: API: value(readout= IC50, system= recombinant human cGAS (aa147-522) (Homo sapiens, UniProt Q8N884), query= CN(CCC(=O)NCCO)c1cc(-c2cn[nH]c2)c2ccc(Cl)c(Cl)c2n1 [I-194] )
Found: < 2000 nM

Lookup: API: value(readout= IC50, system= recombinant human cGAS (aa147-522) (Homo sapiens, UniProt Q8N884), query= CNS(=O)(=O)CCNc1cc(-n2ccnc2)c2ccc(Cl)c(Cl)c2n1 [I-201] )
Found: < 2000 nM

Lookup: API: value(readout= IC50, system= recombinant human cGAS (aa147-522) (Homo sapiens, UniProt Q8N884), query= O=C(O)C1CCCN(c2cc(-n3ccnc3)c3ccc(Cl)cc3n2)CC1 (stereo not shown) [I-363] )
Found: 2000 to 30000 nM

Lookup: API: value(readout= IC50, system= recombinant human cGAS (aa147-522) (Homo sapiens, UniProt Q8N884), query= N#CCc1cn(-c2cc(-c3ccccc3)nc3cc(Cl)ccc23)cn1 [I-64] )
Found: > 30000 nM

====

target: recombinant human cGAS (aa147-522) (Homo sapiens, UniProt Q8N884); construct: recombinant human cGAS (aa147-522); His6-SUMO (cleaved yes); made in house; host or cells: E. coli BL21/pLys; test: In vitro inhibition assay of cGAS activity (ATP consumption, KinaseGlo Max); type: biochemical; conditions: Table 3, read-out: cGAS Inhibition Results IC50
Metric name: IC50

Known results for compounds:
O=C(O)C[C@@H]1CCN1c1cc(-n2ccnc2)c2ccc(Cl)c(Cl)c2n1 [I-461] = < 2000 nM
O=C(O)C1CN(C(=O)C[C@@H]2CCCN2c2cc(-n3ccnc3)c3ccc(Cl)c(Cl)c3n2)CCO1 (some centres unmarked) [I-538] = < 2000 nM
C[C@H]1C[C@@H](COCCC(=O)O)N(c2cc(-n3ccnc3)c3ccc(Cl)c(Cl)c3n2)C1 [I-708] = < 2000 nM
COC(=O)C[C@@H]1[C@@H](O)CCN1c1cc(-n2ccnc2)c2ccc(Cl)c(Cl)c2n1 [I-786] = < 2000 nM
O=C(O)[C@@H]1C[C@@H]2C[C@@H]2N1c1cc(-n2ccnc2)c2ccc(Cl)c(Cl)c2n1 [I-469] = < 2000 nM

Consider the additional compound presented here.
Lookup: Would you mind telling me what IC50 value was observed for COC(=O)[C@@H]1[C@H](OC)CCN1c1cc(-n2ccnc2)c2ccc(Cl)c(Cl)c2n1 [I-647] ?
Found: 2000 to 30000 nM
